TEST DESCRIPTION: yeast display, Sf9 membrane polyspecificity reagent, FACS + sequencing; frameworks hold sequencing errors
REPORTED PROPERTY: polyreactivity (PSR sort gate)

Use these answered entries as a reference point.
# RESIDUES, polyreactivity (PSR sort gate)
measured = [
    ("QVKLVESGGGLVQAVGILSLSCAASGSILGLYAMGWYRQAPGKERELVASITSSGSTYYADSVKGRFTISRDNAKNTVYLQMIILKPEDTAVYYCAAVVSYYYYIRYDYWGQGTQVTVSS", "low polyreactivity"),
    ("QVQLVESGGGLVQAGGSLRLSCAASGRIFRYNAMGWYRQAPGKETELVAVFSGSGGSTYYADSVKGRFTISRDNAKHTVYVQMNSLKPEDTAVYYCAAQFHVSWYNYWGQGTQVTVSS", "low polyreactivity"),
    ("QVQLVESGGGLVQAGGSLRLSCAASGRTFYVNAMGGYRQAPGKERELVARITSGGSTYYADSVKGRFTISRDNAKNTVYLQMNSLKPEDTAVYYCAKKYIGYQEWIHSTRRYDYWGQGTQVTGSS", "low polyreactivity"),
    ("QVQLVESVGGLVQAGGSLRLSCAASGRIFYLYAMGWYRQEPGKERELVAVISYGGDRTSYADSVKGRFTISRDNAKNTVYLQMNSLKPEDTAVYYCAARPFYRGYYYWGQGTQVTVSS", "high polyreactivity"),
    ("QVQLVESGGGLVQAGGSLRLTCAASGRTFGKYAMGWYRQAPGKERELVAAISSSGSTNYADSVKGRFTISRDNAKNTDYLQMNSLKPEDTAVYYCAAVQPGQSTVAYDYWGQGTQVTVSS", "high polyreactivity"),
]

Query: For QVQLVESGGGLVQAGGSLRLSCAASGSTILTYVMGWYRQAPGKERELVAAISYSGGRSYYADSVKGRFTISRDTAKNTVYLQMNSLKPEDTAVYYCAAYRVNKSSRTMDYWGQGTQVTVSS , what is its reported polyreactivity (PSR sort gate)?
Response: high polyreactivity

Query: Item: QVQLVESGGGLVQAGGSLRLSCAASGRTLTYNVMGWYRQAPGKERELVASISSSGSSTHYADSVKGRFTISRDNAKNTVYLQMNSLKPEDTAVYYCAVEFWRPFWTRFDYWGQGTQVTVSS
Response: high polyreactivity

* * *

TEST DESCRIPTION: yeast display, Sf9 membrane polyspecificity reagent, FACS + sequencing; frameworks hold sequencing errors
REPORTED PROPERTY: polyreactivity (PSR sort gate)

# RESIDUES, ENDPOINT RESULT
rows = [
    ("QVQLVESGGGLVQAGGSLRLICAASGFTFGYYPMGWYRQAPGKERELVAAINWSGVNTNYADSVKGRFTISRDNAKNTVYLQMNSVKPEDTAVYYCAADAGYDGYGYWGQGTQVTVSS", "low polyreactivity"),
    ("QVQLVESGGGLVQAGGSLRLSCAASGSTFDTYAMGWYRPAPGKERELVAAISRSGTSTYYADSVKGRFTISRDNAKNTVYLQMNSLKPEDSAVYYCAAYGPRVNGEIGREYYYWGQGTQVTVSS", "low polyreactivity"),
    ("QVQLVESGGGLVQAGGSLRLSCAASGSTFGGNAMGWYRQAPGKERELVAGITSSGTSTYYADSVKGRFTISRDNAKNTVYLQMNSLKPEDTAVYYCATDEADESYGFELFDYWGQGTQVTVSS", "low polyreactivity"),
    ("QVQLVESGGGLVQAGGSLRLSCAASGFTFLRYAMGWYRQAPGKERELVAAITGSGGSTYYADSVKGRFTISRDNAKNTVYLQMNSLKPEDTAVYYCSIVSKFTGDYGYWGQGTQVTVSS", "high polyreactivity"),
    ("QDQLVESGGGLVQAGGSLRLSCAASGRILASYAMGWYRQAPGKERELVAAISLSGGSTYYADSVKGRFTISRDNAKNTVYLQMNSLKPEDTAVTYCAAKYPQKTPVNSYGNSFYYWGQGTQVTGSS", "low polyreactivity"),
]

Query: Please report the recorded polyreactivity (PSR sort gate) for QVQLVESGGGLVQAGGSLRLSCAASGFTFWSYAMGWYRQAPGKERELVAGITIDGNTYYADSVKGRFTISRDNAKNTVYLQMNSLKPEDTAVYYCAAVAYYYGYDYWGQGTQVTVSS .
Response: low polyreactivity

Query: Another: QVQLVESGGRLVQAGGSLRLRCAASGFTFGYNDMGWYRPAPGKERELLAGIRSGDDTNYADSVKGRFTISRDNAKNTDYLQMNSLKPEDTAVYYCAADVVNIATAEYDYCGQGTQVTVSS
Response: low polyreactivity

Query: Can you check QVQLVESGGGLVQAGGSLRLSCAASGRIFGHYVMGWYRQAPGKERELVAAITWRGGSTYYADSVKGRFTISRDNAKNTVYLQMNSLKPEDTAVYYCNRALPGYGLRRDYWGQATQVTVSS next?
Response: high polyreactivity

Query: Next sequence: QVQLVESGGGLVQAGGSLRLSCAASGSIFRYYAKGWSRQAPGKERELVAAISRSGGSTYYADSVKGRFTISRDNAKNTVYLQMKSLKPEDTAVYYCAAEYRVRAQGYVYWGQGTQVTVSS
Response: high polyreactivity

Query: And what about the sequence QVQLVESGGGLVQAGGSLRLSCAASGSILRTYTMGWYRQATGKERELVAAISSSGGRTYYADSVKGRFTISRDNAKNTVYLQMNSLKPEDTAVYYCNAGGYRYRSYDYWGQGTQVTVSS ?
Response: high polyreactivity

Query: Moving on to the next sequence: QVQLVESGGGLVQAGGSLRLSSADSGRIFRGYAMRLYRQAAGKVREFVAAISWGGGSKYYADSEKGRFTISRDNPKNTVYLQMNSLTPEDSAVYYCAAGSPYAYNYWGQGPQVTVSS
Response: high polyreactivity
